Assay: protease stability score; higher = more stable; yeast display proteolysis, trypsin and chymotrypsin;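 further: relative to predicted unfolded state with 0 unfolded-like and 1 meaning tenfold more protease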
For each record, write down the corresponding protease stability score.
Reply: number alone, nothing else.

Exam item: What value of measured protease stability score is listed for `SEEEEDARQAFEEYTESLKTGDEDTLDRLLDPDTLLIINGREIHGMEEAIRIWHVWLRHMRFRSQEMRRIRVIDGKIDIESRSIIDINGREVDLRVHYILHKVNGRWLIESVRFE` ?
Marked response: 2.38

Exam item: What value of measured protease stability score is listed for `SEEFEILFRLLEELDRAFETGDFKRFMELADPHTRLDVGEFHHWGREKVLEFWRHWRVKHVRVEFKRIDYQGDKLHTDGILRHTGEINGQETHEETRTNIHLIVINGRMHALEVRII` ?
Marked response: 2.01

Exam item: What value of measured protease stability score is listed for `DEDEENFERLVHLTLHYLLTGDFEDFNHLADPHVKLNVNGQQHVGREKWSELLHLFGINHMQIEERDLRVIGDKVRLDVRGTSQVGDKEHEVHIHIHAQKVNGRWTVTEMQINTE` ?
Marked response: 2.1
